Origin of values: PubChem BioAssay AID588407

target desc: Mu-type opioid receptor (Homo sapiens) + Delta-type opioid receptor (Homo sapiens) (UniProt P35372+P41143)
Sequence (P35372 whole entry, looked up): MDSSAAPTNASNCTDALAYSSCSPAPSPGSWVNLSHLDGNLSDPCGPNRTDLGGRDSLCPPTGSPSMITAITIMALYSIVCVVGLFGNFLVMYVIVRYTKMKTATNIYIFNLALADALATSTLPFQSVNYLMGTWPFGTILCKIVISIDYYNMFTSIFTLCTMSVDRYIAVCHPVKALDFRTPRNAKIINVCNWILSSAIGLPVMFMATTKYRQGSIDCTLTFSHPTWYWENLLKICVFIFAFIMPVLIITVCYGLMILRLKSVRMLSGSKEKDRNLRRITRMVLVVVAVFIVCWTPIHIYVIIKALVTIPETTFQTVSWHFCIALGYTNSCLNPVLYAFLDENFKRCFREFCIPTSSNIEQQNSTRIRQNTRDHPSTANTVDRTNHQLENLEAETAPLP
Sequence (P41143 whole entry, looked up): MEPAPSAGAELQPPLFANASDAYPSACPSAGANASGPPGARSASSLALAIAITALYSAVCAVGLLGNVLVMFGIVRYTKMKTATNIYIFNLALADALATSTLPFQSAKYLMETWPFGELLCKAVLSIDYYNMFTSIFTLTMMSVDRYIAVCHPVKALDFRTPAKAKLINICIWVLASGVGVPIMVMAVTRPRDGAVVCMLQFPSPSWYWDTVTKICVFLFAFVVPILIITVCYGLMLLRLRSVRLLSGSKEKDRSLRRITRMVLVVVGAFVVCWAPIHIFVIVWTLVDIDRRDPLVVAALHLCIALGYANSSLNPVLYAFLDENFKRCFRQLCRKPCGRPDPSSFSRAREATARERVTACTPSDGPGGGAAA
assay summary: OPRM1-OPRD1 heterodimer agonist potency – cell-based, luminescence, dose response (AID 588407);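 further: potency of agonists raising the heterodimer signal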
measurement parameters: cells, MOR-DOR heterodimerization
Activity calls are given as the source filed them. How the calls were made is not given here.
The categories you may choose from are active, inactive

The following molecules have reported results that may help.
INSERT INTO assay_data (molecule, class_label) VALUES
  ('COc1ccc(CN2CCc3c([nH]c4ccccc34)C2)c(OC)c1C', 'inactive'),
  ('CN1CCN(c2ccc(NC(=O)c3ccc(-c4cccc([N+](=O)[O-])c4)o3)cc2)CC1', 'inactive'),
  ('CCC(=O)OC1(c2cccc(C)c2)CC(C)N(C)CC1C (stereo unspecified)', 'inactive'),
  ('CCN1CCN(c2ccc([N+](=O)[O-])c(Sc3nc4ccccc4[nH]3)c2)CC1', 'active');

Dear colleague, could you share the recorded outcome for COc1ccccc1NC(=O)c1sc2nc(C)cc(C)c2c1N when you have a moment? inactive

Hey, what did the test say about CN1C(CC(=O)Nc2ccc(Br)cc2)c2ccccc2CC1(C)C (stereo unspecified) ? active

I'd appreciate the recorded outcome for CC[C@@H](C)[C@@H]1CN([C@@H](CN2CCC[C@H]2CN2C(N)=NC[C@H]2C(C)C)C(C)C)C(=N)N1CCc1ccc(Cl)c(Cl)c1 from this test. active
